assayProcedure: soluble on expression in E. coli; label from the status in PepcDB or PDB records
readoutType: soluble on expression in E. coli

Worked examples, 4 sequences total:
# sequenceContent, soluble on expression in E. coli
rows = [
    ("MTTTTPIRLLVRPITAGDNLAIANVIREVSAEFGLTADKGYTVSDPNLDHLYELYSQPRSAYWVIEVDGHIAGGGGVAPLLGGEADLCELQKMYFLPILRGKGLAKQLALQALAFARQQGFGRCYLETTASLTSAVGLYERLGFEHIGGAMGNTGHVDCEVTMLKTL", "not soluble"),
    ("MSLTLISLQTFAAAWEEKLYNPMPDAEDVVLPMPCDGAMVFRKVYIPLAGPLDDYPVNIGGDNAEYGYVEQTHPAFIAGSFTTEKNAKSRYYLLAKYEMTVLQYSALTQAECPAPSNKQRLPVVSLSWMQAMEAADKYNIWLRENAADKLPKEDGVAGFLRLPTEVEWEFAARGGLNVSTAEFRDLRYPMPEGVNAYEWFAGTQSANGQLQLSGLLKPNPLGLHDMLGNVDEMMFEPFRLNKLDRQHGQAGGYVVRGGDFRTAQGELRSSLRKERNYYDAKAAATSKTTGVRLALASSTLTSRERVSSIETSWKEGHHHHHH", "not soluble"),
    ("MGSDKIHHHHHHMSKPSPRHLWHVQPGSNVITHPLKQSHYLNVELMSLEIVAEYPRPPALVACSDHVIVEALGTRICETHDCLRVLETFHPPTYYLPPKAMRKDLLIRSRRSSFCEWKGIANYWDLVIADKRLEGAIWSYPDPTPTFRALTGWYALYPGRMDHCSVNGETVIPQPGQFYGGWITSQVVGPFKGDPAHPQLI", "not soluble"),
    ("MSLAQINVAILGAGRIAQSMAETLVKMAADDRYRDLVAPYAVAARDGERAAAFAAKYGFPVSYGSYEELVADPNVNLVYIATPHNFHAEQAILCMRAGKGVLVEKAFGANTQQAREILDVSDETGMLCTEAIWTRYMPSRGMIDDIIASGVIGEVQAIDANLCYPTTAKARITDPALAGGALLDVGVYPINFIDMIMHNAPIARVESSMQPYETGVDAHNSMTFYYQNGVMATAQSSILCHSDRMGAVWGTEGYLTCQNINNVEAIDMFDGSHAVTAHYDVPEQLTGYEYEVASTAQAMLDGRTECDEMPHSDTLRIMECMDSLRADWGLKYPFEAEGHHHHHH", "soluble"),
]

Problem: Could you tell me which soluble on expression in E. coli is on file for `GMSEPYGKAFSLMRAEAEPAWRAYTHHAFVEGLKAGTLPREAFLHYLQQDYVFLIHFSRAWALAVVKSETHSEMLAAVGTVNALVAEEMQLHIGICEASGISQEALFATRERAENLAYTRFVLEAGYSGDLLDLLAALAPCVMGYGEIGKRLTAEATSTLYGDWIDTYGGDDYQAACKAVGTLLDDALERRLGAEFTSSPRWSRLCQTFHTATELEVGFWQMGLTP` ?
Solution: soluble

Problem: Could you tell me which soluble on expression in E. coli is on file for `MAHHHHHHMRTPVVGAGVAPLEPAPLEASSAAGEDGGEAGVGDEGTDRERFSKMWMYCLQQMQGHEVGMLMDMMPPDIQELYSDKLSDEYLLDEHDNMDKGVHALRAAQKMVEELTSEQLFHIEEFLAGTDAFNAEANRCHGKAHHPRGDGDNLEEEEEAGGDDDEDLFMHRDEGMGSDEEEWLLEQMIAAGDKTSAAAK` ?
Solution: not soluble
